- tested_system: 5-hydroxytryptamine receptor 1A (Homo sapiens) (UniProt P08908)
- Sequence (whole entry): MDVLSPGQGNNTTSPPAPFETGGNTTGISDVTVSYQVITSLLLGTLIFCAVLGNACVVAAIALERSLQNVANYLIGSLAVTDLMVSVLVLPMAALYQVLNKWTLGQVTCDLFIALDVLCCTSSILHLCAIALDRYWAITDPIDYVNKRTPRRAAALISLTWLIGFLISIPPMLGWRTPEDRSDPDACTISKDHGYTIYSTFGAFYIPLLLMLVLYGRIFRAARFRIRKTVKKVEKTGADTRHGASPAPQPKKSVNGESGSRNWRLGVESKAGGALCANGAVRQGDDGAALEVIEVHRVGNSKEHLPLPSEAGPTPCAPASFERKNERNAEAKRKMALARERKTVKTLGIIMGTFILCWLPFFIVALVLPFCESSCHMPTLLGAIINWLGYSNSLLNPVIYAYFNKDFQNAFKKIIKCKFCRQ
- assay_remarks: Agonist activity at human cloned 5HT1A receptor expressed in HeLa cell membrane assessed as stimulation of [35S]GTPgammaS binding relative to 5-hydroxytryptamine
- Type: functional, cell membranes
value_kind: %max
Number only, please.

# %max of c1ccc(OCCNC[C@@H]2COCC(c3ccccc3)(c3ccccc3)O2)cc1 = 77.1

New cases:
# %max of COc1ccccc1OCCNC[C@@H]1COCC(c2ccccc2)(c2ccccc2)O1 = 81.5

# %max of NCCc1c[nH]c2ccc(C(N)=O)cc12 = 96

# %max of COc1cccc(OC)c1OCCNC[C@@H]1COCC(c2ccccc2)(c2ccccc2)O1 = 106

# %max of COc1ccccc1OCCNC[C@@H]1CO[C@H](c2ccccc2)CO1 (relative stereo) = 85.5

* * *

Target sequence: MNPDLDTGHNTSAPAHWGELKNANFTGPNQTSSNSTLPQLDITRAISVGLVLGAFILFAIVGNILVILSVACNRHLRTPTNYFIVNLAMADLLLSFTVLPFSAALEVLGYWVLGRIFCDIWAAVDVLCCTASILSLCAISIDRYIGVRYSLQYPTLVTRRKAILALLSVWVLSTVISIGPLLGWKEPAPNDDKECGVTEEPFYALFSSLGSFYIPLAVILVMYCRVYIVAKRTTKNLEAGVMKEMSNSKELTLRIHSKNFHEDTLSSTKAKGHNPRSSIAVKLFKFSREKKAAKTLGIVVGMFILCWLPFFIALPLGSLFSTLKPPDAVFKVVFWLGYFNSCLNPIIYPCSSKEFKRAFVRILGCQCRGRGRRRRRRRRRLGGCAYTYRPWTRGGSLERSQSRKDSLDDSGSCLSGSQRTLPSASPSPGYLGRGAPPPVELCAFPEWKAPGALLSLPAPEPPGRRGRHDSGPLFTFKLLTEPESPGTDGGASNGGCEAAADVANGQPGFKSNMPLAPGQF
Sorting guide: entries reporting Ki beneath 100 nM go in the Met pile, the rest go in the Not met pile.

Some solved cases for reference:
Confirm or reject: Ki of c1ccc(OCCNC[C@@H]2COC(c3ccccc3)(c3ccccc3)CO2)cc1 lies strictly below 100 nM
Not met

Confirm or reject: Ki of COc1cccc(OC)c1OCCNC[C@@H]1COC[C@@H](c2ccccc2)O1 (relative stereo) lies strictly below 100 nM
Not met

Confirm or reject: Ki of c1ccc(OCCNC[C@@H]2COCC(c3ccccc3)(c3ccccc3)O2)cc1 lies strictly below 100 nM
Not met

New cases:
Confirm or reject: Ki of COc1ccccc1OCCNC[C@@H]1COCC(c2ccccc2)(c2ccccc2)O1 lies strictly below 100 nM
Met

Confirm or reject: Ki of COc1cccc(OC)c1OCCNC[C@@H]1COC[C@H](c2ccccc2)O1 (relative stereo) lies strictly below 100 nM
Not met

Confirm or reject: Ki of COc1ccccc1OCCNC[C@@H]1COC(c2ccccc2)(c2ccccc2)CO1 lies strictly below 100 nM
Met
